Source of measurements: patent US11261186B2

Molecular target: hGPR120 (Homo sapiens, UniProt Q5NUL3)
Sequence (Q5NUL3 whole entry): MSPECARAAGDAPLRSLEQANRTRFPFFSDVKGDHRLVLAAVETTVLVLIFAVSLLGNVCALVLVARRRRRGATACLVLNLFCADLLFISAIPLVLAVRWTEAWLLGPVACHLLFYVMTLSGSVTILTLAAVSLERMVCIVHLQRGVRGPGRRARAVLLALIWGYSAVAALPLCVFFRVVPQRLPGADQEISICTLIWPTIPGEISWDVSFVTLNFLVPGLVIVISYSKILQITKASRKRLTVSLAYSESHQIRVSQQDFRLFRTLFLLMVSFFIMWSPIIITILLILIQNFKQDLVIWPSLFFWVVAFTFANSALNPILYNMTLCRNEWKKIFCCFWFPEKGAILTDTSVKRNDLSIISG
Assay: Measurement of Activity of GPR120 Agonist (Cell-Based Assay), Calcium 5 dye fluorescence
Details: CHO-K1 cells expressing Ga16 and hGPR120
assay.readout: EC50

Guide cases for EC50, answers given:
Return EC50 measured with hGPR120 (Homo sapiens, UniProt Q5NUL3) given this molecule: O=C(O)CC1CCN(c2c(F)cc(-c3cccc(OC4CCC4)c3)cc2F)CC1 [Example 300]
200 to 2000 nM

// next record O=C(O)CCCSc1ccc(-c2cccc3c2OC2(CCCC2)O3)cc1F [Example 157]
< 200 nM

Again, but for CC(C)Sc1ncccc1-c1ccc2cc(OCCCC(=O)O)ccc2c1 [Example 5]
200 to 2000 nM

Do the same for COCCCOc1cc(C)nc(-c2cc(F)c(N3CCC(CC(=O)O)CC3)c(F)c2)n1 [Example 601] please
200 to 2000 nM

Ok, now CC(CCCCC(=O)O)c1c(F)cc(-c2cccnc2OC2CCCC2)cc1F (stereo not shown) [Example 237]
< 200 nM

Further cases:
Param readout= EC50; system= hGPR120 (Homo sapiens, UniProt Q5NUL3); entry= O=C(O)CCc1ccc2cc(-c3cccc(SC4CCCC4)n3)ccc2c1 [Example 143] ; returns value.
2000 to 20000 nM
